- system-under-test: Stat3:Stat3 (Mus musculus, UniProt P42227)
- Construct: endogenous in cells; host or cells: EGF-stimulated fibroblasts (nuclear extract)
- Sequence (P42227 2-770 limits assumed): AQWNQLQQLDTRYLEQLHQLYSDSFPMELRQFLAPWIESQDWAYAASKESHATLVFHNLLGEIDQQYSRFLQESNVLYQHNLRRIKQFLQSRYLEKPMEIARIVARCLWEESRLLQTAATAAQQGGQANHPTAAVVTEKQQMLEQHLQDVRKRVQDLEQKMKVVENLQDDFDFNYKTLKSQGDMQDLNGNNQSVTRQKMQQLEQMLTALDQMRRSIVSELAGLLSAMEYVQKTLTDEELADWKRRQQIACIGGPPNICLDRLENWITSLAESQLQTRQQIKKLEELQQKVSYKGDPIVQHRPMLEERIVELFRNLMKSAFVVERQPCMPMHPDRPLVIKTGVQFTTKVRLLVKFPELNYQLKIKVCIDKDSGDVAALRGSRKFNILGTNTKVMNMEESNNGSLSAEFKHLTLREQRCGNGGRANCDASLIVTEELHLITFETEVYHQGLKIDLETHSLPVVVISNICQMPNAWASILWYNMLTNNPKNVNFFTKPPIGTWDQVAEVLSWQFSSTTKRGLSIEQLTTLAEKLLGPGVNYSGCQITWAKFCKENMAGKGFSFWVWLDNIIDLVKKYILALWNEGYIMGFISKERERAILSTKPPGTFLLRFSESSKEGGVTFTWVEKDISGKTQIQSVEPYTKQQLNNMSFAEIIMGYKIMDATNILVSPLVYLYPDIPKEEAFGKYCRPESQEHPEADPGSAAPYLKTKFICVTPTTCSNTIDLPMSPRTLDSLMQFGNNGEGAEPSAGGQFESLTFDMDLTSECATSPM
- test-method-notes: EMSA, disruption of Stat3:Stat3 DNA-binding activity in vitro (hSIE probe)
- Format: biochemical
- conditions-used: EGF-stimulated fibroblast nuclear extracts, 30 min preincubation, FIG. 1A
readout-name: Level of DNA-binding activity of Stat3 (EMSA)

>  <smiles-code>
[NH2][Pt]([NH2])([Cl])([Cl])([Cl])[N+](=O)[O-]

>  <experimental-result>
dose-dependent reduction

$$$$
>  <smiles-code>
[Cl][Pt]1([Cl])[NH]CC[NH]1

>  <experimental-result>
dose-dependent reduction

$$$$
>  <smiles-code>
O=[N+]([O-])[Pt]1([Cl])([Cl])([Cl])[NH]CC[NH]1

>  <experimental-result>
dose-dependent reduction

$$$$

---

- system-under-test: Stat1:Stat3 (Mus musculus, UniProt P42225+P42227)
- Construct: endogenous in cells; host or cells: EGF-stimulated fibroblasts (nuclear extract)
- Sequence (P42225 2-749 limits assumed, one chain of several): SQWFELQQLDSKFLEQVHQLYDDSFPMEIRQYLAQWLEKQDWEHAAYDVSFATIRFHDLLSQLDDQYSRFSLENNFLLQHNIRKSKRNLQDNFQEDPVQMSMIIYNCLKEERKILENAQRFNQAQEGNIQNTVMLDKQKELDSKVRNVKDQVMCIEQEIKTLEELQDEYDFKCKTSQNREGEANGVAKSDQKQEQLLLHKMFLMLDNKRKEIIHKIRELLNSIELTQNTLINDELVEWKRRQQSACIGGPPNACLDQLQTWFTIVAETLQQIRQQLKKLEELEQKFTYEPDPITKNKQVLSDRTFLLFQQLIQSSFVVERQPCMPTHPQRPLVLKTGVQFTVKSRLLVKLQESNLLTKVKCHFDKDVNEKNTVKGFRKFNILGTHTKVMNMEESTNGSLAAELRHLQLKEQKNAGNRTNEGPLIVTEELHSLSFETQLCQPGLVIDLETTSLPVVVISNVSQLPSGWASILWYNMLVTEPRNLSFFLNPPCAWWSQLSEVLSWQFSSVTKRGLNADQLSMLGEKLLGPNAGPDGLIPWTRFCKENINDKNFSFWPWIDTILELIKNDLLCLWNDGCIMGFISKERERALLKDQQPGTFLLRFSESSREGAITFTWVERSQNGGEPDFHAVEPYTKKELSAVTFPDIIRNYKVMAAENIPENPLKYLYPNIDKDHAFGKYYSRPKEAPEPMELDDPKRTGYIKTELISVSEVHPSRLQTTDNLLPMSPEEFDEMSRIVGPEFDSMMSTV
- test-method-notes: EMSA, disruption of Stat1:Stat3 DNA-binding activity in vitro (hSIE probe)
- Type: biochemical
Below, each entry is listed alongside its reported IC50.

>  <smiles-code>
O=[N+]([O-])[Pt]1([Cl])([Cl])([Cl])[NH]CC[NH]1

>  <IC50 / µM>
9.3

$$$$
>  <smiles-code>
[Cl][Pt]1([Cl])[NH]CC[NH]1

>  <IC50 / µM>
27

$$$$

---

- system-under-test: Stat1:Stat3 (Mus musculus, UniProt P42225+P42227)
- Construct: endogenous in cells; host or cells: EGF-stimulated fibroblasts (nuclear extract)
- test-method-notes: EMSA, disruption of Stat1:Stat3 DNA-binding activity in vitro (hSIE probe)
- Type: biochemical
- conditions-used: nuclear extracts pre-incubated 30 min at room temperature, hSIE probe; read-out: IC50 for disruption of STAT DNA-binding activity in vitro, Stat1:Stat3
pIC50: −log10 of the molar value.

>  <compound>
[NH2][Pt]([NH2])([Cl])([Cl])([Cl])[N+](=O)[O-] [ISS CPA-7]

>  <pIC50>
5.46

$$$$
